# Target or system: CAMKK1 kinase domain (CAMKK1-KD, Gln124-Lys411) (Homo sapiens, UniProt Q8N5S9)
# Construct: The kinase domain (Gln124 to Lys411) was amplified using the primers; 6xHis (TEV-cleavable) (N, cleaved yes); made in house; host or cells: Escherichia coli BL21(DE3)-R3 co-expressing λ-phosphatase
# Sequence (Q8N5S9 124-411): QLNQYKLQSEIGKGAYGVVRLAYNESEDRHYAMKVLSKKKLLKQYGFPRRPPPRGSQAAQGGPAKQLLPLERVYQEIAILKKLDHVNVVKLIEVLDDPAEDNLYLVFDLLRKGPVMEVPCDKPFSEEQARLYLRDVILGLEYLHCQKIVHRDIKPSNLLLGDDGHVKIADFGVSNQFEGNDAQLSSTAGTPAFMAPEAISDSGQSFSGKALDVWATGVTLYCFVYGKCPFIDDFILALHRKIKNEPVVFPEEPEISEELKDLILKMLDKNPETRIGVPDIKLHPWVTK
# Protocol text: Differential scanning fluorimetry (DSF) screen of a kinase inhibitor library against CAMKK1-KD
# Assay type: binding
# Assay conditions: DSF, 1 μM CAMKK1-KD, compound 10 µM; supplement
Value kind: Mean ΔTm (°C)
Quick reminder: number only, in °C, skip the unit.

Reference set (5 entries):
C=CC(=O)Nc1cccc(Sc2nc(Nc3ccc(N4CCN(C)CC4)cc3)ncc2Cl)c1 [WZ8040]    4.1
COc1cc(C(=O)NC2CCN(C)CC2)ccc1Nc1ncc2c(n1)N(C1CCCC1)CC(F)(F)C(=O)N2C [Ro3280]    4.8
COc1ccccc1-c1cc(Nc2cccc(CS(N)(=O)=O)c2)ncn1 [LDC000067]    4.2
C=CC(=O)Nc1cccc(Oc2nc(Nc3ccc(N4CCN(C)CC4)cc3)ncc2Cl)c1 [WZ3146]    3.1
O=C(c1cccc(Cl)c1F)N1CCN(Cc2cccc(Nc3nccs3)n2)CC1 [MK-8745]    2.0

Return reported Mean ΔTm (°C); argument: O=C(NCc1ccccc1)c1csc(Nc2ccncn2)n1 [Thiazovivin]
3.0

Now try CS(=O)(=O)O.Cn1cc(C2=C(c3cn(CCCSC(=N)N)c4ccccc34)C(=O)NC2=O)c2ccccc21 [Ro 31-8220 Mesylate] .
3.4

Let us now turn to Cc1cnc(Nc2ccc(N3CCN(C)CC3)cc2)nc1Nc1cccc(S(=O)(=O)NC(C)(C)C)c1 [TG101209]
3.6
